assayTarget: T1, full length PEAK3 from insect cells (PEAK3^FL, S69 phosphorylated) (human, UniProt Q6ZS72 1-473, phosphoserine at 69; biotin (EZ-Link NHS-PEG4-Biotin) where immobilised for SPR)
T1 chain: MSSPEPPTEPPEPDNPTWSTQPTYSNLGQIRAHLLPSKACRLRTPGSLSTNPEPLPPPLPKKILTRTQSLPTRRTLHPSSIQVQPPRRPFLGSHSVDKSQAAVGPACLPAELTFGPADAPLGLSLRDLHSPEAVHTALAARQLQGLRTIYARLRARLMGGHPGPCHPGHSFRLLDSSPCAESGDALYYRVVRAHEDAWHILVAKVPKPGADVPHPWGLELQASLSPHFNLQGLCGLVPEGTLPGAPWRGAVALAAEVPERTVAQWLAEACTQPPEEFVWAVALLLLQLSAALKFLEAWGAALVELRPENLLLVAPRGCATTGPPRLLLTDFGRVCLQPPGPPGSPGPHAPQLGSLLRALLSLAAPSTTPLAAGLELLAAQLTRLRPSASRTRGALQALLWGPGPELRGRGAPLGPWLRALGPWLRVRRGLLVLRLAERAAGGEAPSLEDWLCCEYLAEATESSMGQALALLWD
experiment: SPR
testReadout: Kd (µM)
Provide only the numeric value, understood in µM.

Exercise: Answer with reported Kd of CrkII NSH3 domain (CrkII^NSH3, residues 134–191) (domain or fragment) AEYVRALFDFNGNDEEDLPFKKGDILRIRDKPEEQWWNAEDSEGKRGMIPVPYVEKYR
Key: 3.9
